Attribution: ChEMBL document CHEMBL5257048

Entries and their IC50
Tested on: OVCAR-3
protocol: Cytotoxicity against human OVCAR-3 cells assessed as inhibition of cell growth incubated for 72 hrs by MTT assay
Format: functional, cell-based
applied conditions: OVCAR-3, 72 h
reported property: IC50 (µM)

• CC1=C[C@]2(C)C(=C(C)[C@@H]3[C@@H]4C[C@H](C)C[C@H](C)[C@H]4[C@H]4Oc5ccc(cc5)C[C@@]5(O)C=C(C(=O)N5)C(=O)[C@H]2[C@@H]43)[C@@H]1C = 1.6
• CC1=C[C@]2(C)C(=C(C)[C@@H]3[C@@H]4C[C@H](C)C[C@H](C)[C@H]4[C@H]4Oc5ccc(cc5)CC(=O)[C@@H]5O[C@@]5(C(N)=O)C(=O)[C@H]2[C@@H]43)[C@@H]1C = 24
• CC1=C[C@]2(C)C(=C(C)[C@@H]3[C@@H]4C[C@H](C)C[C@H](C)[C@H]4[C@H]4Oc5ccc(cc5)C[C@]5(O)NC(=O)[C@]6(O[C@H]65)C(=O)[C@H]2[C@@H]43)[C@@H]1C = 21
• CO[C@@H]1/C2=C(\O)[C@H]3[C@H]4[C@H](Oc5ccc(cc5)C[C@]1(O)NC2=O)[C@H]1[C@@H](C[C@H](C)C[C@@H]1C)[C@H]4C(C)=C1[C@H](C)C(C)=C[C@]13C = 1
• CC(=O)O[C@]12Cc3ccc(cc3)O[C@@H]3[C@H]4[C@@H](C[C@H](C)C[C@@H]4C)[C@H]4C(C)=C5[C@H](C)C(C)=C[C@@]5(C)[C@@H](C(=O)[C@@]5(O[C@H]51)C(=O)N2)[C@@H]34 = 20
